Give composite z-score for every item shown.
# TGT: Torsin-1A-interacting protein 1 (Homo sapiens) (UniProt Q5JTV8)
# Sequence (Q5JTV8 whole entry, looked up): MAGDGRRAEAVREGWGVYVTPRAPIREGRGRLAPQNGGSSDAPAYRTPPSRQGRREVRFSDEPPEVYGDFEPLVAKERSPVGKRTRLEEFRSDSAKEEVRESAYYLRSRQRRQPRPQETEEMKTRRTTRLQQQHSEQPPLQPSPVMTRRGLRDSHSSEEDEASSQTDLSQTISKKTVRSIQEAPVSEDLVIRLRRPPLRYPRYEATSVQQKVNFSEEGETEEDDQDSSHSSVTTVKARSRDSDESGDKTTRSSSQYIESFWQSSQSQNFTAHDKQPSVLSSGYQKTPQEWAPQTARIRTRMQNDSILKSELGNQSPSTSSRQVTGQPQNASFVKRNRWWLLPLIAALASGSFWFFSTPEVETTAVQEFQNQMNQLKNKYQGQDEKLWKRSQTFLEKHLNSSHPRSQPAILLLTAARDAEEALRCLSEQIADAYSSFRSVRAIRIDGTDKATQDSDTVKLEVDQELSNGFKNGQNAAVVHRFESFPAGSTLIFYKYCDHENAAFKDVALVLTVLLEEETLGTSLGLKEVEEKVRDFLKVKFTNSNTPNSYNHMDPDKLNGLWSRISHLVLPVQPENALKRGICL
# TEST PROTOCOL: LAP1 binders from COS7 cell lysate, primary screen, small-molecule microarray, 635/667 nm fluorescence (AID 1116)
# ASSAY SETUP: COS7-hLAP1 lysate binding, 635 nm fluorescence, higher = more signal
Answers are plain numbers.

Answered examples (5):
> print(dat)
                            smiles.notation  observed.value
1  CC(=O)NCCCC[C@@H]1NC(=O)[C@H]2C[C@@H](C(=O)NCCCCCCN(C)C)[C@@H](c3ccc(O)cc3)N2C1=O            1.85
2  CCOC(=O)C[C@H]1[C@H](OC(=O)c2ccccc2-c2ccccc2)[C@@H](NC(=O)C2CCCCC2)c2cc(OCCCO)ccc2N1C(=O)c1ccccc1           0.584
3  Cc1ccc(S(=O)(=O)c2cc3oc2CC[C@@H](CO)NC(=O)N(C)Cc2cn(nn2)C[C@H](Cc2ccccc2)NC3=O)cc1           0.781
4  CCCNC(=O)[C@@H]1c2ccccc2C(=O)N(C2CCCCC2)[C@H]1c1ccc(CO)cc1            0.65
5  CN(C)C(=O)[C@@]1(Cc2ccccc2N=[N+]=[N-])N=C(c2ccc(OCCCO)cc2)O[C@H]1c1ccccc1CN=[N+]=[N-]            3.11

Quick batch: composite z-score for everything below.
1. CCCC/C=C/[C@H]([C@@H](O)Cc1ccccc1)N(CC#Cc1ccccc1)Cc1ccccc1Br
2. CN(C)CCCC[C@@H]1NC(=O)[C@@H]2C[C@H](C(=O)O)[C@H](c3ccc(O)cc3)N2C1=O

Result:
-0.356
0.485

---

Give composite z-score for every item shown.
# TGT: Left-right determination factor 2 (Homo sapiens) (UniProt O00292)
# Sequence (O00292 whole entry, looked up): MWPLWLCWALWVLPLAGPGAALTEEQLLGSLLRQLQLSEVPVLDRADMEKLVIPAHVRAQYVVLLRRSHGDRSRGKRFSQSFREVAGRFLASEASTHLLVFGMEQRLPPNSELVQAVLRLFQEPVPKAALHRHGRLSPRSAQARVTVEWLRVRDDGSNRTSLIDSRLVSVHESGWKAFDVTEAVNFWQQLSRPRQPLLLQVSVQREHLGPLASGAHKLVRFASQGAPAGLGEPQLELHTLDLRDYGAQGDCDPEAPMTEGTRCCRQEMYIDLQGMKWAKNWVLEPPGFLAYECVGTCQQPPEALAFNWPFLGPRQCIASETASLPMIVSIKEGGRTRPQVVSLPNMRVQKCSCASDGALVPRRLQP
# TEST PROTOCOL: LEFTY2 binders on small-molecule microarrays, primary screen, biochemical, small-molecule microarray, 635 nm fluorescence scan (AID 1110)
# ASSAY SETUP: LEFTY2 binding, higher = more signal
Numbers only.

Answered examples (3):
COMPOUND	TGT	composite z-score
COCCCNC(=O)[C@@H]1c2ccccc2C(=O)N(CC23CC4CC(CC(C4)C2)C3)[C@H]1c1ccc(CO)cc1	Left-right determination factor 2 (Homo sapiens) (UniProt O00292)	-0.191
CCC1=C2CN(Cc3ccccc3Br)[C@@H]([C@@H](O)Cc3ccccc3)C2C=CCC1 (some centres undefined)	Left-right determination factor 2 (Homo sapiens) (UniProt O00292)	0.473
C=CCC(OC(C)=O)[C@@H]1[C@@H](N(Cc2ccc(-c3cccc(C(F)(F)F)c3)o2)C(=O)Cc2ccc(F)cc2)c2cc(OCCCO)ccc2N1C(=O)c1ccc(-c2ccccc2)cc1 (some centres undefined)	Left-right determination factor 2 (Homo sapiens) (UniProt O00292)	-0.689

Q: Supply composite z-score value. Item: `COC(=O)[C@H]1[C@@H]2COc3ccccc3[C@H]2N[C@H]1C(=O)OC`
Result: 0.362

---

# TGT: Dickkopf-related protein 1 (Homo sapiens)
# TEST PROTOCOL: DKK1 binders on small-molecule microarrays, primary screen, biochemical, small-molecule microarray, 635 nm fluorescence scan (AID 1106);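 note: score merges emission near 667 nm with signal to noise over three replicate slides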
# ASSAY SETUP: DKK1 binding, higher = more signal
Give composite z-score for every item shown.

MOLECULE	OBSERVED VALUE
N#Cc1ccc(NN2C(C(O)c3ccc(I)cc3)C=CC3C(=O)N(c4ccccc4)C(=O)C32)cc1 (stereo unspecified)	-0.337
COc1cc2c(cc1OC)CN(C(=O)[C@@H]1[C@H]3C(=O)O[C@H](c4ccccc4)[C@H](c4ccccc4)N3[C@H](c3ccccc3OCCO)[C@@]13C(=O)Nc1ccccc13)CC2	-0.134
CC(C)[C@H]1NC(=O)[C@@]23C(=O)N[C@@H](Cc4ccccc4)C2[C@H](C)[C@@]2(C)O[C@H]2C3/C=C/C/C=C\CNC(=O)[C@H](C)NC1=O (stereo partly specified)	-0.443
CCN1C(C)=C(C(=O)OC)[C@@H](c2ccccc2)N2C(=O)[C@@]3(C(=O)OC)O[C@@]12[C@@H]1C(=O)N(C)C(=O)[C@@H]13	1.1
C#CCCCON=C1C[C@@H](O)[C@@H](O)[C@@H]2[C@@H]3C(=O)N(Cc4ccc5c(c4)OCO5)C(=O)[C@@H]3CC[C@H]12	0.59

Quick batch: composite z-score for everything below.
1. C[C@H]1C2[C@H](Cc3ccccc3)NC(=O)[C@]23C(=O)N[C@H](Cc2ccccc2)C(=O)N[C@@H](Cc2ccccc2)C(=O)NC/C=C\C/C=C/C3[C@@H]2O[C@]12C (stereo partly specified)
2. C=CCOC(=O)[C@@H]1[C@H]2C(=O)O[C@H](c3ccccc3)[C@H](c3ccccc3)N2[C@H](c2ccc(OCCOC(=O)[C@H]3C[C@H]4C(=O)N[C@@H](CCCCNC(C)=O)C(=O)N4[C@H]3c3ccc(O)cc3)cc2)[C@@]12C(=O)Nc1ccc(I)cc12
3. C=CCOC(=O)[C@@H]1[C@H]2C(=O)O[C@H](c3ccccc3)[C@H](c3ccccc3)N2[C@H](c2ccc(OCCOC(=O)[C@H]3C[C@H]4C(=O)N5CCC[C@H]5C(=O)N4[C@H]3c3ccc(O)cc3)cc2)[C@@]12C(=O)Nc1ccccc12
4. NC(=O)NCC#Cc1ccc2c(c1)[C@]1(C(=O)N2)[C@H](c2ccccc2OCCO)N2[C@H](c3ccccc3)[C@H](c3ccccc3)OC(=O)[C@H]2[C@@H]1C(=O)N1CCN(c2ncccn2)CC1
5. COC(=O)[C@@]1(Cc2ccccc2N=[N+]=[N-])N=C(c2ccc(OCCCO)cc2)O[C@H]1c1ccccc1CN=[N+]=[N-]

Result:
0.409
0.394
0.921
0.133
-0.304

Quick batch: composite z-score for everything below.
1. C=CC[C@@]12N=C(c3ccc(OCCCO)cc3)O[C@@H]1c1ccccc1CN(Cc1ccccc1)C2=O
2. O=C(CS)NCCCCCNC(=O)[C@H]1C[C@H]2C(=O)N3CCC[C@H]3C(=O)N2[C@H]1c1ccc(O)cc1
3. CCCNC(=O)[C@@]1(Sc2ccc(C)cc2)CC(=O)N(Cc2ccccc2Cl)[C@@H]1c1ccc(CO)cc1
4. [N-]=[N+]=NCc1ccccc1C[C@]1(C(N)=O)N=C(c2ccc(OCCCO)cc2)O[C@H]1c1ccccc1CN=[N+]=[N-]
5. CC(C)[Si](OCCCNS(=O)(=O)c1ccc(Br)cc1)(C(C)C)C(C)C
6. COc1ccc([Si](C)(C)[C@@H]2[C@@H](CCO)O[C@]3(C(=O)N(Cc4ccccc4)c4ccccc43)[C@H]2C)cc1

Result:
1. 0.191
2. 0.844
3. 1.22
4. -0.9
5. 0.673
6. 0.104
